Attribute: z-score
# test method notes: P. aeruginosa biofilm formation inhibitors, primary screen, PAO1 strain, BacTiter-Glo luminescence, LB-PBS (AID 1144)
# assay conditions: 12 h, higher = more signal
measurement kind: z-score

[[record]]
compound = "COc1ccc(C(=O)Nc2ccc(CN3C(=O)[C@@]4(O[C@@H](CC(=O)N5CCC[C@H]5CO)[C@H]([Si](C)(C)c5ccc(OC)cc5)[C@H]4C)c4ccccc43)cc2)cc1"
reported_measurement = -1.34

[[record]]
compound = "COCCCN1C(=O)[C@@]2(Cc3ccccc31)c1ccccc1C(=O)N(Cc1ccccc1C(F)(F)F)[C@H]2c1ccc(CO)cc1"
reported_measurement = -0.169

[[record]]
compound = "CCOC(=O)[C@H]1C/C=C/C[C@H](C(=O)OCC)C(=O)O[C@H]2[C@@H](OC)O[C@H](CO)[C@@H](OC(=O)Nc3cccc(F)c3)[C@@H]2OC1=O"
reported_measurement = -0.509

[[record]]
compound = "O=C1OCCC/C=C\\[C@H]2OC34C=CCN(Cn5nnc6ccccc65)C(=O)[C@H]3N(CCCCCCO)C(=O)[C@@H]4C12 (some centres undefined)"
reported_measurement = -2.19

[[record]]
compound = "COCCOC(=O)N1C(=O)[C@@]2(c3ccccc31)[C@H](c1ccc(O)cc1)N1[C@H](c3ccccc3)[C@H](c3ccccc3)OC(=O)[C@H]1[C@@H]2C(=O)NC[C@H](O)c1ccccc1"
reported_measurement = 0.494

[[record]]
compound = "COC(=O)[C@@]1(Cc2ccc(F)cc2)[C@H]2c3cc(C(=O)N4CCCC4)n(Cc4ccc(C)o4)c3C[C@H]2CN1C(=O)c1ccccc1"
reported_measurement = 0.82

[[record]]
compound = "COc1ccc(NN2C(C(O)c3ccc([N+](=O)[O-])cc3)C=CC3C(=O)N(C4CCCCC4)C(=O)C32)cc1 (centres undefined)"
reported_measurement = -1.05

[[record]]
compound = "CCCCN1CC=CC23O[C@@H]4C=CCOC(=O)[C@@H]4[C@H]2C(=O)N(CCCCCO)[C@@H]3C1=O (some centres undefined)"
reported_measurement = -1.08

[[record]]
compound = "COc1ccc([Si](C)(C)[C@H]2[C@H](CC(=O)N3Cc4ccccc4C[C@H]3CO)O[C@@]3(C(=O)N(Cc4ccc(N5CCC5=O)cc4)c4ccccc43)[C@@H]2C)cc1"
reported_measurement = 0.522

[[record]]
compound = "COC(=O)[C@@]1(Cc2ccc(OC)cc2)[C@H]2c3cc(C(=O)N4CCCC4)n(Cc4ccsc4Br)c3C[C@H]2CN1C(=O)c1ccccc1"
reported_measurement = 0.674

[[record]]
compound = "CCCCC=C[C@@H](NC(=O)Oc1cccc(C(F)(F)F)c1)c1ccccc1"
reported_measurement = -0.721

[[record]]
compound = "C=CCNC(=O)[C@H]1[C@@H]2C(=O)O[C@@H](c3ccccc3)[C@@H](c3ccccc3)N2[C@@H](c2ccccc2OCCO)[C@]12C(=O)Nc1ccc(C#CC3=CCCCC3)cc12"
reported_measurement = 1.64

[[record]]
compound = "O=C1[C@H]2C=C(Br)[C@H](C[C@@H]2OCCCCO)[C@@]12CO2"
reported_measurement = 0.56

[[record]]
compound = "CC(C)N1C(=O)c2ccccc2[C@](C)(C(=O)NCc2ccccc2)[C@@H]1c1ccc(CO)cc1"
reported_measurement = 0.261

